tested-on: IGF1 (human, UniProt P05019)
assay-explanation: ELISA
Entries and their log10(EC50)
metric-name: log10(EC50) (log10 of the value in nM)

{"binder": "DVD042 IGF1,2 arm (antibody, V domains shown, DVD-Ig outer) VH: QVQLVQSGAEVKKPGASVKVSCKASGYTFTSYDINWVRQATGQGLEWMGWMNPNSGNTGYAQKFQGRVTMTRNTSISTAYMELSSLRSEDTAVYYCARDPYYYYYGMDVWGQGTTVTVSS VL: QSVLTQPPSVSAAPGQKVTISCSGSSSNIENNHVSWYQQLPGTAPKLLIYDNNKRPSGIPDRFSGSKSGTSATLGITGLQTGDEADYYCETWDTSLSAGRVFGGGTKLTVLG", "metric-name": "log10(EC50)", "reported-value": 0.40}
{"binder": "DVD029 IGF1,2 arm (antibody, V domains shown, DVD-Ig inner) VH: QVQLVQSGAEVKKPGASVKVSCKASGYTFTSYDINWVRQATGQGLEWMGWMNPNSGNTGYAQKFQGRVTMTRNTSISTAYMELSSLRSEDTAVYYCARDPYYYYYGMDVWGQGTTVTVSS VL: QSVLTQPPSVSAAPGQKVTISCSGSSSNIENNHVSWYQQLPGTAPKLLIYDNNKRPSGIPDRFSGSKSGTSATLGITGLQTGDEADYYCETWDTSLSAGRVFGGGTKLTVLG", "metric-name": "log10(EC50)", "reported-value": 2.36}
{"binder": "DVD030 IGF1,2 arm (antibody, V domains shown, DVD-Ig outer) VH: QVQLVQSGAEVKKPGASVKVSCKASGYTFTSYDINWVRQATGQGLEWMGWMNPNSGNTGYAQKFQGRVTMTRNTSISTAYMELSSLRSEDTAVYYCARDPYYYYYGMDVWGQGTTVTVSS VL: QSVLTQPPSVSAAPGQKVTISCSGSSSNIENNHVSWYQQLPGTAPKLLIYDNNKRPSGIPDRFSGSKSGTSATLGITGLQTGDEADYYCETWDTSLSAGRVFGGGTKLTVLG", "metric-name": "log10(EC50)", "reported-value": 0.26}
{"binder": "AB010 (antibody, V domains shown) VH: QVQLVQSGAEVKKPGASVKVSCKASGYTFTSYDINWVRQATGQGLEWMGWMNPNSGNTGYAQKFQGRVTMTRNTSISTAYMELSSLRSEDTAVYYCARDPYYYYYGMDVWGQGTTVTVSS VL: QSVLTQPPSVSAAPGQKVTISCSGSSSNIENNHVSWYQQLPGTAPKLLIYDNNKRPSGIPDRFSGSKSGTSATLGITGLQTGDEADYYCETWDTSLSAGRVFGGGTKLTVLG", "metric-name": "log10(EC50)", "reported-value": 0.68}
{"binder": "DVD041 IGF1,2 arm (antibody, V domains shown, DVD-Ig inner) VH: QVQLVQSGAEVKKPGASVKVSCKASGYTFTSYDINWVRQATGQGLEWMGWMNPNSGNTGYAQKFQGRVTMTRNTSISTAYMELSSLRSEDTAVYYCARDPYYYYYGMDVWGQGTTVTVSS VL: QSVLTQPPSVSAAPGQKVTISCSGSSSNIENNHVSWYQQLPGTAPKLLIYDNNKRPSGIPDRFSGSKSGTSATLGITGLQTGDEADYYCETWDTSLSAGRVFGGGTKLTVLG", "metric-name": "log10(EC50)", "reported-value": 2.58}
